Where do these numbers come from? They come from patent US20250027068.

Target: pooled human IgG
reported.property: Enzyme Activity Endpoint Assay: Fc (ng/µL)
Reply numerically in ng/µL, unit not repeated.

Query PRT-540 (protein) MANQEIRYSKNENPNVTIKWVHGIGEPTQAEKEKIEFYWYETNTTKFFNNRKVTHLGDSNQCWAKTASNMLHWWFVQNKENINKYIEKKNITGKINFNGEQMFDVKEGIDDNQEKEKSYIANTFRTKKAHNLSTKHKGDYIINGLAWYLYGLNNFKNAHGPTPVKKKPKFYGPALFKDVFNRGDGNTPIIEETDFKEYTKKEFEDTLSEALDSKKAIGINIYGSNVDYGHAITLWGAAFDEDENIIAIYVVDNNFKFENRIFPYGIWYEKEGRPYLFNYEINSFVKNRYVGEITTLDKGEAQWQETNLEHHHHHH yields Enzyme Activity Endpoint Assay: Fc of 0
